Field IC50: reported value for Dihydroorotate dehydrogenase (quinone), mitochondrial (Homo sapiens, UniProt Q02127); entries drawn from several documents.

Past entries and their recorded results:
- C[C@H](Oc1nc(-n2nc3n(c2=O)CCC2(CC2)C3)c(F)cc1C(=O)Nc1c(F)cccc1Cl)C(F)(F)F: < 50 nM
- CCn1c(CO)nn(-c2cc(O[C@@H](C)C(F)(F)F)c(/C=C/c3cccnc3Cl)cc2F)c1=O: 31.8 nM
- CCn1c(CO)nn(-c2cc3c(C(C)C)cn(-c4nccnc4C)c(=O)c3cc2F)c1=O: > 10000 nM
- CCC[C@H](C)Oc1cc(-n2nc3n(c2=O)CCC2(CC2)C3)c(F)cc1C(=O)Nc1c(F)cccc1Cl: < 50 nM

Proceed to the following item.
The molecule `Cc1nc2c(C(=O)O)cc(-c3ccc(-n4c(C)ccc4C)cc3)cc2[nH]1` on Dihydroorotate dehydrogenase (quinone), mitochondrial (Homo sapiens, UniProt Q02127): IC50 was 1 to 9.9 nM
